Give log10 of IC50 for every item shown.
Target: Beta-3 Adrenergic Receptor (Homo sapiens (Human), UniProt P13945)
Sequence (P13945 whole entry, species assumed): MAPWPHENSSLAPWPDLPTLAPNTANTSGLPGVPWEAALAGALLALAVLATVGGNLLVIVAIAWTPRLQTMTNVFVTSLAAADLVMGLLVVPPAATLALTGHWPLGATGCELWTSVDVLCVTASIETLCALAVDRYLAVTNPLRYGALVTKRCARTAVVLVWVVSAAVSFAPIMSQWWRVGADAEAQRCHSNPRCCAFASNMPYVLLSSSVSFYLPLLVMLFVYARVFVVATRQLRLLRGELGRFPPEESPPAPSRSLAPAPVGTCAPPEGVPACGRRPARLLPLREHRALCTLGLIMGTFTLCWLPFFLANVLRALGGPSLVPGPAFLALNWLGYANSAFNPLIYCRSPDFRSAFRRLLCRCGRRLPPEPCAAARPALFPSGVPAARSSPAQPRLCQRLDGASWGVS
Assay: Homogeneous Time-Resolved Fluorescence (HTRF) cAMP antagonist assay, IC50 determination
Conditions: CHO-K1 cells stably expressing recombinant receptor, isoproterenol at EC90
Log10 applied to IC50; unit prior to transform: nM.

molecule	log10 of IC50
CCNS(=O)(=O)c1cccc(OC[C@@H](O)CNC2COC3(CCN(S(=O)(=O)c4cccc(-c5ccc(S(N)(=O)=O)cc5)c4)CC3)C2)c1 (some centres unmarked)	1.22
CN(C)S(=O)(=O)c1cccc(OC[C@@H](O)CNC2COC3(CCN(S(=O)(=O)c4ccc5nsnc5c4)CC3)C2)c1 (some centres unmarked)	1.52
CNS(=O)(=O)c1cccc(OC[C@@H](O)CNC2COC3(CCN(S(=O)(=O)c4cccc(-c5cccc(CN)c5)c4)CC3)C2)c1 (some centres unmarked)	1.36
CNS(=O)(=O)c1cccc(OC[C@@H](O)CNC2COC3(CCN(S(=O)(=O)c4ccc(Cl)c5nonc45)CC3)C2)c1 (some centres unmarked)	0.86
CNS(=O)(=O)c1cccc(OC[C@@H](O)CN[C@H]2COC3(CCN(S(=O)(=O)c4cnc5c(c4)ncn5C)CC3)C2)c1	1.52

Dear colleague, could you please provide log10 of IC50 for the molecules listed below?
1. CNS(=O)(=O)c1cccc(OC[C@@H](O)CN[C@H]2COC3(CCN(c4nccc(C(F)(F)F)n4)CC3)C2)c1
2. CNS(=O)(=O)c1cccc(OC[C@@H](O)CNC2COC3(CCN(S(=O)(=O)c4ccc5oncc5c4)CC3)C2)c1 (some centres unmarked)

2.78
1.96
